Measured pKd values are reported for all entries that follow.
# measured_target: Interleukin-8 (IL8, CXCL8), C-terminal His-tagged (Homo sapiens, UniProt P10145 SEQ:1-72)
# Sequence (P10145 28-99): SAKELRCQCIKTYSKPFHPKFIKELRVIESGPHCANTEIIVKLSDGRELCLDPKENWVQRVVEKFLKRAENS
# procedure_summary: TR-FRET
# assay_conditions: tags: C-terminal 6xHis (Sino Biological); label: Alexa Fluor 647
pKd: −log10 of the molar value.
recorded_metric: pKd

INSERT INTO results (binder, value_measured) VALUES
  ('UCAGUUGCGGCCCCUGAUACCGAUUUGCCGCCCGGU (ssRNA, 2''-F G, 2''-OMe A/C/U, 5'' C6NH2, 3'' idT) [Aptamer 15]', 7.66),
  ('UGGAUGACAUUCGGGGGCACCAAUCAUCGUCUGCU (ssRNA, 2''-F G, 2''-OMe A/C/U, 5'' C6NH2, 3'' idT) [Aptamer 18]', 7.89);
